Reported Emax values for the following molecules.
# tested.on: A9L-m1 (Homo sapiens, UniProt P11229)
# method.notes: m1 secondary assay: PI stimulation in A9L-m1
# Type: cell-based
# assay.context: A9L-m1, relative to carbachol; read-out: Pl stim. A9L-m1 % Max of carbachol
Write it as a number; the unit % goes unstated.

Some molecules with recorded Emax:
[
  {
    "molecule": "O=C(NC1c2cc(/N=C/N3CCCC3)ccc2C[C@@H]1O)c1ccc(F)c(Br)c1 (stereo partly drawn)",
    "tested.on": "A9L-m1 (Homo sapiens, UniProt P11229)",
    "unit.annotation": "%",
    "Emax": 70.5
  },
  {
    "molecule": "Cc1ccc(C(=O)NC2c3cc(/N=C/N4CCCC4)ccc3C[C@@H]2O)cc1Br (stereo partly drawn)",
    "tested.on": "A9L-m1 (Homo sapiens, UniProt P11229)",
    "unit.annotation": "%",
    "Emax": 59
  },
  {
    "molecule": "C/C(=N\\c1ccc2c(c1)C(NC(=O)c1ccc(Cl)c(Cl)c1)C(O)C2)N(C)C (stereo not drawn)",
    "tested.on": "A9L-m1 (Homo sapiens, UniProt P11229)",
    "unit.annotation": "%",
    "Emax": 59.2
  },
  {
    "molecule": "Cc1cc(C(=O)NC2c3cc(/N=C/N4CCCC4)ccc3C[C@@H]2O)ccc1Br (stereo partly drawn)",
    "tested.on": "A9L-m1 (Homo sapiens, UniProt P11229)",
    "unit.annotation": "%",
    "Emax": 42
  },
  {
    "molecule": "Cc1ccc(C(=O)NC2c3cc(/N=C/N4CCCC4)ccc3C[C@@H]2O)cc1I (stereo partly drawn)",
    "tested.on": "A9L-m1 (Homo sapiens, UniProt P11229)",
    "unit.annotation": "%",
    "Emax": 64
  }
]

// switching to the query molecule
Item O=C(NC1c2cc(/N=C/N3CCCC3)ccc2C[C@@H]1O)c1ccc(F)c(Cl)c1 (stereo partly drawn) has what recorded Emax? 40

###

# tested.on: human m1 receptor (Homo sapiens, UniProt P11229)
# Construct: expressed in transfected cells; host or cells: CHO (Chinese hamster) cells
# Sequence (P11229 1-460): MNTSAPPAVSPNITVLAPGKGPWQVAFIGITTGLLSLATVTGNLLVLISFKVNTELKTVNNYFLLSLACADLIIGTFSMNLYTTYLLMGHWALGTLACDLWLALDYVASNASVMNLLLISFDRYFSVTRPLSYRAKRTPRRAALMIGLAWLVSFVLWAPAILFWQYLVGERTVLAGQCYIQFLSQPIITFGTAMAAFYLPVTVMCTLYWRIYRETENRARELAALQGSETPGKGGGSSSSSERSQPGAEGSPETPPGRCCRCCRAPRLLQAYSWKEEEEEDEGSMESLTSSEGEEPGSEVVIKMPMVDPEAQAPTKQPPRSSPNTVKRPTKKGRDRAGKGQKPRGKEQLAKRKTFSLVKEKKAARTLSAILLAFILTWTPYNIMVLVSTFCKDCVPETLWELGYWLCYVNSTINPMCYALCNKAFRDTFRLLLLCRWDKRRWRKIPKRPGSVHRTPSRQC
# method.notes: m1 primary assay: arachidonic acid release in CHO-m1 cells
# Format: cell-based
readout.type: Max. % activity @ 5 μM (%)
Write it as a number; the unit % goes unstated.

Some molecules with recorded Max. % activity @ 5 μM:
[
  {
    "molecule": "CN(C)/C=N/c1ccc2c(c1)C(NC(=O)c1ccc(Cl)c(Cl)c1)C(O)C2.Cl (stereo not drawn) [Compound 127]",
    "Max. % activity @ 5 μM (%)": 69.8
  },
  {
    "molecule": "C/C(=N\\c1ccc2c(c1)C(NC(=O)c1cccc(C(F)(F)F)c1)C(O)C2)N(C)C (stereo not drawn) [Compound 124]",
    "Max. % activity @ 5 μM (%)": 82.2
  }
]

// switching to the query molecule
Item O=C(N[C@@H]1c2cc(/N=C/N3CCCC3)ccc2C[C@H]1O)c1ccc(Cl)c(Cl)c1 [Compound 121] has what recorded Max. % activity @ 5 μM? 45.4

Values from patent US6395735B2
